# system_under_test: Histamine H4 receptor (Homo sapiens)
# experiment_description: Inhibition of histamine H4 receptor at 1 uM
Each entry below lists one item and its recorded inhibition value.
Unit % implied. Number only.

[
  {
    "compound": "CN(C)C1CCc2c(c3ccccc3n2S(=O)(=O)c2cccc(Cl)c2)C1 (racemic)",
    "inhibition, %": 4.9
  },
  {
    "compound": "CN(C)C1CCc2c(c3ccccc3n2S(=O)(=O)c2cccc(C(F)(F)F)c2)C1 (racemic)",
    "inhibition, %": 4.14
  },
  {
    "compound": "COc1ccc2c(c1)c1c(n2S(=O)(=O)c2ccccc2)CCC(N(C)C)C1 (racemic)",
    "inhibition, %": 0
  }
]

Next, consider the following compound.
inhibition reported for this compound CN(C)C1CCc2c(c3cc(Br)ccc3n2S(=O)(=O)c2ccccc2)C1 (racemic) : 0
